- target.entity: HCV NS3 helicase (Hepatitis C virus genotype 1b, UniProt P26663)
- Construct: full-length NS3 (1-631), purified at Array BioPharma
- Sequence (P26663 1027-1657): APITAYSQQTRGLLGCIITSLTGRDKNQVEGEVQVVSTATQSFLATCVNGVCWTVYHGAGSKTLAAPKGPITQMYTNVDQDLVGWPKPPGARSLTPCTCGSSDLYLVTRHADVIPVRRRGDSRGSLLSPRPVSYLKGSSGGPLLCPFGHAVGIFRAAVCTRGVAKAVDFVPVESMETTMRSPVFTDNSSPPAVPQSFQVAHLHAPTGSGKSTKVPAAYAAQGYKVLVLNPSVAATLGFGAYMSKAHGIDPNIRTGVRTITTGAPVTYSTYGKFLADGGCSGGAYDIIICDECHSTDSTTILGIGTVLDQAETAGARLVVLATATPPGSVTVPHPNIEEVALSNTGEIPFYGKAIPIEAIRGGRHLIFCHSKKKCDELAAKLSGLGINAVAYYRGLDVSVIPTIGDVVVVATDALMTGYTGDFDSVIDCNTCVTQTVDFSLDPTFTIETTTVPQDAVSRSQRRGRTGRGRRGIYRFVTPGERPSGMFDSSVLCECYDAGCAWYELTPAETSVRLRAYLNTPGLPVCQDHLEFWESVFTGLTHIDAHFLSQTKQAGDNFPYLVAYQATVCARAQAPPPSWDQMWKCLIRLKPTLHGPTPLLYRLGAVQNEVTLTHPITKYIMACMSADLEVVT
- test.summary: HCV Helicase Prompt FRET Assay (Example A)
- Format: biochemical
- test.settings: HCV NS3 helicase; tables do not say whether Example A or Example B assay; read-out: IC50 Activity
pIC50: −log10 of the molar value.
recorded.metric: pIC50

# input Any idea what its pIC50 is? The compound is O=C(O)Cc1cn(Cc2noc(-c3ccccc3)n2)c2ccc(OCc3ccccc3)cc12
# output 4.30 to 5.00

# input Param item: Cc1cc([N+](=O)[O-])ccc1-n1cc(C(O)(C(=O)O)C(F)(F)F)c2cc(Br)ccc21 (stereo not shown)
# output > 5.00

# input Cool, now O=C(O)Cc1cn(Cc2cccc(-c3ccccc3)c2)c2ccc(OCc3ccccc3)cc12
# output > 5.00

# input Similarly, Cc1cc([N+](=O)[O-])ccc1-n1cc(C(Cc2ccc(C(C)C)cc2)C(=O)O)c2cc(Br)ccc21 (stereo not shown) ?
# output 4.30 to 5.00

---

I'd be grateful if you could share measured IC50 for these entries.
- target.entity: HCV NS3 helicase (Hepatitis C virus genotype 1b)
- Construct: full-length NS3 (1-631), purified at Array BioPharma
- test.summary: HCV Helicase Prompt FRET Assay (Example A)
- Format: biochemical
- test.settings: HCV NS3 helicase; tables do not say whether Example A or Example B assay; read-out: IC50 Activity

# input Give its IC50 value. Item: O=C(O)Cc1cn(Cc2csc3ccc(Cl)cc23)c2cc(Oc3ccc([N+](=O)[O-])cc3)ccc12 [Example 357]
# output < 10 µM

# input Try CN(C)C(=O)c1cccc(-c2cccc(Cn3cc(CC(=O)O)c4cc(OCc5ccccc5)ccc43)c2)c1 [Example 117] next.
# output 10 to 50 µM

# input Repeat for the following compound: c1ccc(-c2ccccc2Cn2cc(Cc3nnn[nH]3)c3ccccc32)cc1 [Example 203]
# output < 10 µM

# input Next compound up: COc1ccccc1-c1ccc(Cc2[nH]c3ccccc3c2CC(=O)O)cc1 [Example 284]
# output 10 to 50 µM

---

- target.entity: HCV NS3 helicase (Hepatitis C virus genotype 1b)
- Construct: full-length NS3 (1-631), purified at Array BioPharma
- test.summary: HCV Helicase Prompt FRET Assay (Example A)
- Type: biochemical
- test.settings: HCV NS3 helicase; tables do not say whether Example A or Example B assay; read-out: IC50 Activity
Please respond with reported IC50 for every item in the list.

# input Quick one: IC50 for O=C(O)Cc1c(Cc2ccc(-c3ccccc3Cl)cc2)[nH]c2ccc(Br)cc12 [Example 294] ?
# output < 10 µM

# input Same question, O=C(O)Cc1c(C(=O)c2ccc(-c3ccccc3)cc2)n(Cc2csc3ccc(Cl)cc23)c2ccccc12 [Example 220] this time
# output < 10 µM

# input What would you report for CC(C)c1ccc(Cn2c(C(=O)NC3CCN(C(=O)OC(C)(C)C)CC3)c(CC(=O)O)c3cc(Br)ccc32)cc1 [Example 436] ?
# output < 10 µM

# input Now try O=C(O)Cc1cn(Cc2cccc(Oc3cccc(F)c3)c2)c2ccccc12 [Example 473] .
# output < 10 µM

# input Repeat with O=C(O)Cc1cn(Cc2ccc(Oc3cccc(F)c3)cc2)c2ccccc12 [Example 518]
# output < 10 µM

# input Field entry: Nc1cccc(-c2ccc3c(CC(=O)O)cn(Cc4csc5ccc(Cl)cc45)c3c2)c1 [Example 363]
# output < 10 µM

# input Try O=C(O)Cc1cn(Cc2ccc(Oc3cc(F)ccc3F)cc2)c2ccccc12 [Example 586] next.
# output < 10 µM

# input Same again, this time with O=C(O)Cc1cn(-c2ccc3ccccc3c2)c2ccccc12 [Example 143]
# output 10 to 50 µM

# input Queued: Cc1cc([N+](=O)[O-])ccc1-n1c2ccccc2c2c(C(=O)O)cccc21 [Example 470]
# output > 50 µM

# input Request: O=C(NS(=O)(=O)C1CC1)c1cn(Cc2csc3ccc(Cl)cc23)c2ccccc12 [Example 196]
# output 10 to 50 µM

# input Another compound: Cc1cc(NCc2ccccc2)ccc1-n1cc(CC(=O)O)c2ccccc21 [Example 173]
# output 10 to 50 µM

# input Entry to check: O=C(O)Cc1c(C(=O)c2cccc(-c3cccc(OC(F)(F)F)c3)c2)[nH]c2ccccc12 [Example 237]
# output 10 to 50 µM

# input Now give it for Cc1cc([N+](=O)[O-])ccc1N1CC(CC(=O)O)c2cc(Br)ccc21 (stereo not drawn) [Example 395] too.
# output 10 to 50 µM

# input Try the compound O=C(O)Cc1c(C(=O)c2ccc(-c3cccc(CO)c3)cc2)[nH]c2ccccc12 [Example 264]
# output 10 to 50 µM

# input # iterate: CCOC(=O)Cc1cn(Cc2cccc(N(C)c3ccc(Cl)c(Cl)c3)c2)c2ccccc12 [Example 550]
# output > 50 µM

# input // query: O=C(Cn1cc(Cc2nnn[nH]2)c2ccccc21)N1CCN(Cc2ccccc2)CC1 [Example 205]
# output 10 to 50 µM

# input How about O=C(O)Cc1c(C(=O)c2cccc(-c3ccc(Cl)cc3Cl)c2)[nH]c2ccccc12 [Example 239] ?
# output < 10 µM

# input Now this one: O=C(OCc1ccccc1)C(Cc1ccccc1)c1cn(Cc2csc3ccc(Cl)cc23)c2cc(OCc3ccccc3)ccc12 (stereo not drawn) [Example 350]
# output > 50 µM

# input Moving on to O=C(O)Cc1c(Cc2csc3ccc(Cl)cc23)n(CC2CC2)c2cc(OCc3ccccc3)ccc12 [Example 369]
# output < 10 µM

# input And O=C(O)Cc1cn(Cc2ccc(Oc3cccc(Cl)c3Cl)cc2)c2ccccc12 [Example 588] ?
# output < 10 µM

# input Can you handle COc1ccc2c(CC(=O)O)cn(-c3ccc([N+](=O)[O-])cc3C)c2c1 [Example 341] next?
# output > 50 µM

# input Now the same for NC(=O)c1ccc(-c2ccc(C(=O)c3[nH]c4ccccc4c3CC(=O)O)cc2)cc1 [Example 265]
# output 10 to 50 µM

# input Next compound: CC(=O)c1c(CC(=O)O)c2ccccc2n1-c1ccc(N(C)Cc2ccccc2)cc1 [Example 737]
# output 10 to 50 µM

# input Lookup O=C(O)Cc1cn(-c2ccc(NC(=O)Cc3ccsc3)cc2)c2ccccc12 [Example 164]
# output 10 to 50 µM

# input Same again, this time with Cc1cc([N+](=O)[O-])ccc1C(C(=O)O)C1CN(c2ccc([N+](=O)[O-])cc2C)c2ccc(Br)cc21 (stereo not drawn) [Example 406]
# output 10 to 50 µM

# input Would you mind doing Cc1ccccc1-c1ccc(Cc2[nH]c3ccccc3c2CC(=O)O)cc1 [Example 283] as well?
# output 10 to 50 µM

# input Subsequent entry: O=C(O)Cc1c(C(=O)c2cccc(-c3cc(Cl)cc(Cl)c3)c2)oc2ccccc12 [Example 244]
# output < 10 µM

# input Moving on to O=C(O)Cc1c(C(=O)c2ccc(-c3c(Cl)cccc3Cl)cc2)[nH]c2ccccc12 [Example 273]
# output 10 to 50 µM

# input One more compound: CS(=O)(=O)NC(=O)Cc1cn(Cc2cccc(OCc3ccccc3)c2)c2ccc(OCc3ccccc3)cc12 [Example 192]
# output < 10 µM

# input Entry CC(C)c1ccc(Cn2c(C(=O)Nc3cccc(NS(C)(=O)=O)c3)c(CC(=O)O)c3ccccc32)cc1 [Example 462] please
# output < 10 µM

# input Then what about the compound O=C(O)Cc1c(C(=O)Cc2ccccc2)n(Cc2ccccc2)c2ccccc12 [Example 258] ?
# output 10 to 50 µM

# input Can you check O=C(O)Cc1cn(Cc2cccc(Oc3ccc(F)c(F)c3)c2)c2ccccc12 [Example 484] next?
# output < 10 µM

# input Now consider O=C(O)Cc1cn(Cc2csc3ccc(Cl)cc23)c2cc(OCc3ccccc3)ccc12 [Example 340] .
# output < 10 µM

---

Would you kindly list IC50 for each of these compounds?
- target.entity: HCV NS3 helicase (Hepatitis C virus genotype 1b, UniProt P26663)
- Construct: full-length NS3 (1-631), purified at Array BioPharma
- test.summary: HCV Helicase Prompt FRET Assay (Example A)
- Format: biochemical
- test.settings: HCV NS3 helicase; tables do not say whether Example A or Example B assay; read-out: IC50 Activity

# input Which IC50 is listed for CC(C)c1ccc(Cn2c(C(=O)NCc3ccc(OC(F)(F)F)cc3)c(CC(=O)O)c3ccccc32)cc1 [Example 454] ?
# output < 10 µM

# input Request: Clc1ccc2scc(Cn3cc(Cc4nnn[nH]4)c4ccccc43)c2c1 [Example 202]
# output < 10 µM

# input Moving on to CN(c1cccc(Cn2cc(CC(=O)O)c3ccccc32)c1)c1ccc(F)cc1F [Example 534]
# output 10 to 50 µM

# input Repeat for the following compound: O=C(O)Cc1c(C(=O)c2ccc(-c3cccc(Cl)c3Cl)cc2)[nH]c2ccccc12 [Example 274]
# output < 10 µM

# input Thanks! And Cc1c(Cl)cccc1-c1ccc(-n2cc(CC(=O)O)c3ccccc32)cc1 [Example 150] ?
# output < 10 µM

# input What do you get for CCN(Cc1ccccc1)c1ccc(-n2cc(CC(=O)O)c3ccccc32)c(C)c1 [Example 174] ?
# output < 10 µM

# input Item: O=C(O)Cc1c(C(=O)c2cccc(-c3cc(Cl)cc(Cl)c3)c2)[nH]c2ccccc12 [Example 231]
# output < 10 µM

# input Now the compound CC(C)c1ccc(Cn2c(C(=O)NCc3cccc(F)c3)c(CC(=O)O)c3ccccc32)cc1 [Example 453]
# output < 10 µM

# input // query: CCN(CC)C(=O)C(=O)c1cn(-c2ccc([N+](=O)[O-])cc2C)c2ccc(Br)cc12 [Example 385]
# output > 50 µM

# input Also check COC(=O)/C=C/c1cnc2c(c1)c(/C=C/C(=O)OC)cn2-c1ccc([N+](=O)[O-])cc1C [Example 322]
# output 10 to 50 µM

# input Now give it for CN(c1cccc(Cn2cc(CC(=O)O)c3ccccc32)c1)c1ccccc1C(F)(F)F [Example 529] too.
# output < 10 µM

# input What do you get for CC(C)c1ccc(Cn2c(C(=O)NCc3nc4ccccc4[nH]3)c(CC(=O)O)c3ccccc32)cc1 [Example 449] ?
# output < 10 µM

# input Please answer likewise for O=P(O)(O)Cc1cn(-c2ccc(S(=O)(=O)CCO)cc2)c2ccc(Br)cc12 [Example 315]
# output 10 to 50 µM

# input Follow-up item: O=C(O)Cc1cn(Cc2ccc(Oc3ccccc3Cl)cc2)c2ccccc12 [Example 496]
# output < 10 µM

# input Try CCOc1ccc2c(CC(=O)O)cn(Cc3csc4ccc(Cl)cc34)c2c1 [Example 349] next.
# output 10 to 50 µM

# input Ok, now Cc1cc([N+](=O)[O-])ccc1C(C(=O)O)C1CN(c2ccc([N+](=O)[O-])cc2C)c2ccc(Br)cc21 (stereo not shown) [Example 404]
# output 10 to 50 µM
